assayed target: RXRβ (Homo sapiens, UniProt P28702)
Sequence (P28702 1-533): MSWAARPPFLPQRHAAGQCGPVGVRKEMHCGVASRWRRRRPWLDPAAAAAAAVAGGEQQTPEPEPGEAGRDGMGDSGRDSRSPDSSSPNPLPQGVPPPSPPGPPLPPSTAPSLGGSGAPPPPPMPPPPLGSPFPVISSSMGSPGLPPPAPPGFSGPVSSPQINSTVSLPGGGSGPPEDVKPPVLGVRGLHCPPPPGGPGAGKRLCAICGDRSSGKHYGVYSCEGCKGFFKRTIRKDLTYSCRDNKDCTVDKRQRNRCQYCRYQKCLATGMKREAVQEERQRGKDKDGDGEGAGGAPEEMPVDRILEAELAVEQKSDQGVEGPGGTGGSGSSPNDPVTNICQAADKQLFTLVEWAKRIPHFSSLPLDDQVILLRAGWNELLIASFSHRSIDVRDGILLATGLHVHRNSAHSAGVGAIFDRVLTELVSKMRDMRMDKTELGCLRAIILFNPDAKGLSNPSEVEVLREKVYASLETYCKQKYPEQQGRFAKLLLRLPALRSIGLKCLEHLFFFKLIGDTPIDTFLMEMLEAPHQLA
experiment notes: holoreceptor transactivation assay, RXRβ
experimental context: holoreceptor assay; read-out: RXR Trans. EC50 β
recorded metric: pEC50
Here pEC50 is given on a logarithmic scale as minus log10 of the concentration in mol/L.

Example entries begin here.
CCOc1cc2c(cc1\C(CC)=C(F)/C=C/C(C)=C(\F)C(=O)O)C(C)(C)CCC2(C)C
7.49
CCCOc1cc2c(cc1\C(C)=C(F)/C=C/C(C)=C(\F)C(=O)O)C(C)(C)CCC2(C)C
7.37

Lookup: Give its pEC50 value. Item: `CC/C(=C(F)/C=C/C(C)=C(\F)C(=O)O)c1cc2c(cc1OCOC)C(C)(C)CCC2(C)C`
Found: 7.04
